Molecular target: PE-labeled human PD-L1-Ig binding to Jurkat cell line over-expressing human PD-1 (Jurkat-PD-1) (Homo sapiens)
Construct: expressed in transfected cells; host or cells: Jurkat
Experiment: Jurkat-PD-1 Cell Binding High-Content Screening Assay (CBA): Method 1
Details: Jurkat-hPD-1 cells, PE-labeled PD-L1-Ig 20 nM final; read-out: Jurkat HPDL1 PD1 IC50 (uM) (Method 1)
Bridge positions count the residues as written; N and C are the ends. Square brackets hold non-standard residues; d marks the D form. Peptide text beside a SMILES is read from it. Bip = N[C@@H](Cc1ccc(-c2ccccc2)cc1)C(=O)O; NMeA = CN[C@@H](C)C(=O)O; Nle = CCCC[C@H](N)C(=O)O
compounds and their reported IC50

• CC(C)C[C@@H]1NC(=O)[C@H](Cc2c[nH]c3ccccc23)NC(=O)[C@H](CC(=O)O)NC(=O)[C@H](Cc2ccc(O)cc2)NC(=O)[C@H](Cc2ccccc2)NC(=O)CSC[C@@H](C(=O)N[C@@H](C)C(N)=O)NC(=O)[C@H](CO)NC(=O)[C@H](C(C)C)NC(=O)[C@H](CC(C)C)NC(=O)[C@H](CCC(=O)O)NC(=O)[C@@H](C)NC(=O)[C@H](C)N(C)C(=O)[C@H](C(C)C)NC(=O)[C@H](Cc2ccc(-c3ccccc3)cc2)NC1=O [Compound 1749] ({CH2CO}-FYDWL[Bip]V[NMeA][dA]ELVSCA-NH2; thioether N-14) = 0.02 µM

Proceeding to the next compound to report its IC50.
*Q* Output measured IC50 for this item: CCCC[C@@H]1NC(=O)CSC[C@@H](C(=O)NCC(N)=O)NC(=O)[C@H](CO)NC(=O)[C@H](C(C)C)NC(=O)[C@H](CC(C)C)NC(=O)[C@H](CC(=O)O)NC(=O)[C@H](CC(N)=O)NC(=O)[C@H](C)N(C)C(=O)[C@H](C(C)C)NC(=O)[C@H](Cc2ccc(-c3ccccc3)cc2)NC(=O)[C@H](CC(C)C)NC(=O)[C@H](Cc2c[nH]c3ccccc23)NC(=O)[C@H](CC(=O)O)NC(=O)[C@H](Cc2ccc(O)cc2)NC1=O [Compound 1828] ({CH2CO}-[Nle]YDWL[Bip]V[NMeA]NDLVSCG-NH2; thioether N-14)
*A* 0.82 µM

---

Target: PE-labeled human PD-L1-Ig binding to Jurkat cell line over-expressing human PD-1 (Jurkat-PD-1) (Homo sapiens, UniProt Q15116)
Construct: expressed in transfected cells; host or cells: Jurkat
Sequence (Q15116 25-288): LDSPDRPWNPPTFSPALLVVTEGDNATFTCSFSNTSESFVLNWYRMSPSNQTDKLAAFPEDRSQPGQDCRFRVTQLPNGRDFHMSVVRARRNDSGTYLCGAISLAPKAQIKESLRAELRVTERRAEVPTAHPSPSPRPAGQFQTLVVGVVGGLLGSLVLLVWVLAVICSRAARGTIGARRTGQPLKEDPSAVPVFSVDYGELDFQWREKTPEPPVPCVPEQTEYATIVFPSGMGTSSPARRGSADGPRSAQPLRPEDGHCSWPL
Test: Jurkat-PD-1 Cell Binding High-Content Screening Assay (CBA): Method 1
Settings: Jurkat-hPD-1 cells, PE-labeled PD-L1-Ig 20 nM final; read-out: Jurkat HPDL1 PD1 IC50 (uM) (Method 1)
Bridge positions count the residues as written; N and C are the ends. Square brackets hold non-standard residues; d marks the D form. Peptide text beside a SMILES is read from it. Bip = N[C@@H](Cc1ccc(-c2ccccc2)cc1)C(=O)O; Phe(4-CN) = N#Cc1ccc(C[C@H](N)C(=O)O)cc1; Cha = N[C@@H](CC1CCCCC1)C(=O)O; NMeD = CN[C@@H](CC(=O)O)C(=O)O; NMeA = CN[C@@H](C)C(=O)O; Nle = CCCC[C@H](N)C(=O)O; dAbu = CC[C@@H](N)C(=O)O; Dab = NCC[C@H](N)C(=O)O
# key: entry, value: log10 of IC50
Values below are the log10 of the recorded IC50, with µM as the unit.

Worked examples, 4 compounds total:
* CC(C)C[C@@H]1NC(=O)[C@H](CCN)NC(=O)[C@@H](CC(C)C)NC(=O)[C@H](C)N(C)C(=O)[C@H](Cc2cnc[nH]2)NC(=O)[C@H](Cc2ccc(-c3ccccc3)cc2)NC(=O)[C@H](C(C)C)NC(=O)[C@H](Cc2c[nH]c3ccccc23)NC(=O)[C@H](CC(=O)O)NC(=O)[C@H](Cc2ccc(O)cc2)NC(=O)[C@H](CC(N)=O)NC(=O)CSC[C@@H](C(=O)N[C@@H](C)C(N)=O)NC(=O)[C@H]([C@@H](C)O)NC(=O)[C@H](C(C)C)NC1=O [Compound 1302] ({CH2CO}-NYDWV[Bip]H[NMeA][dL][Dab]LVTCA-NH2; thioether N-14) | -1.70
* CCCC[C@@H]1NC(=O)[C@H](CCN)NC(=O)[C@@H](CC(C)C)NC(=O)[C@H](C)N(C)C(=O)[C@H](CCCNC(=N)N)NC(=O)[C@H](Cc2ccc(-c3ccccc3)cc2)NC(=O)[C@H](C(C)C)NC(=O)[C@H](Cc2c[nH]c3ccccc23)NC(=O)[C@H](CC(=O)O)NC(=O)[C@H](Cc2ccc(O)cc2)NC(=O)[C@H](CC(N)=O)NC(=O)CSC[C@@H](C(=O)N[C@@H](C)C(N)=O)NC(=O)[C@H]([C@@H](C)O)NC(=O)[C@H](C(C)C)NC1=O [Compound 1283] ({CH2CO}-NYDWV[Bip]R[NMeA][dL][Dab][Nle]VTCA-NH2; thioether N-14) | -1.40
* CC(C)C[C@@H]1NC(=O)[C@H](Cc2c[nH]c3ccccc23)NC(=O)[C@H](CC(=O)O)NC(=O)[C@H](Cc2ccc(C#N)cc2)NC(=O)[C@H](CC(N)=O)NC(=O)CSC[C@@H](C(=O)NCC(N)=O)NC(=O)[C@H](CO)NC(=O)[C@H](C(C)C)NC(=O)[C@H](CC(C)C)NC(=O)[C@H](CC(N)=O)NC(=O)[C@@H](CC(C)C)NC(=O)[C@H](C)N(C)C(=O)[C@H](C(C)C)NC(=O)[C@H](Cc2ccc(-c3ccccc3)cc2)NC1=O [Compound 1527] ({CH2CO}-N[Phe(4-CN)]DWL[Bip]V[NMeA][dL]NLVSCG-NH2; thioether N-14) | -2.00
* CC(C)C[C@@H]1NC(=O)[C@H](CCN)NC(=O)[C@@H](CC(C)C)NC(=O)[C@H](C)N(C)C(=O)[C@H](CC(=O)O)NC(=O)[C@H](Cc2ccc(-c3ccccc3)cc2)NC(=O)[C@H](C(C)C)NC(=O)[C@H](Cc2c[nH]c3ccccc23)NC(=O)[C@H](CC(=O)O)NC(=O)[C@H](Cc2ccc(O)cc2)NC(=O)[C@H](CC(N)=O)NC(=O)CSC[C@@H](C(=O)N[C@@H](C)C(N)=O)NC(=O)[C@H]([C@@H](C)O)NC(=O)[C@H](C(C)C)NC1=O [Compound 1260] ({CH2CO}-NYDWV[Bip]D[NMeA][dL][Dab]LVTCA-NH2; thioether N-14) | -0.77

*Q* // Input: CC(C)C[C@H]1NC(=O)[C@H](C)N(C)C(=O)[C@H](C(C)C)NC(=O)[C@H](Cc2ccc(-c3ccccc3)cc2)NC(=O)[C@H](C(C)C)NC(=O)[C@H](Cc2c[nH]c3ccccc23)NC(=O)[C@H](CC(=O)O)NC(=O)[C@H](Cc2ccc(O)cc2)NC(=O)[C@H](CC(N)=O)NC(=O)CSC[C@@H](C(=O)N[C@@H](C)C(N)=O)NC(=O)[C@H]([C@@H](C)O)NC(=O)[C@H](C(C)C)NC(=O)[C@H](CC2CCCCC2)NC(=O)[C@H](CCCNC(=N)N)NC1=O [Compound 1294] ({CH2CO}-NYDWV[Bip]V[NMeA][dL]R[Cha]VTCA-NH2; thioether N-14) . Output its log10 of IC50 only.
*A* -0.52

*Q* Look up and state reported log10 of IC50 for CC[C@H]1NC(=O)[C@H](C)N(C)C(=O)[C@H](C(C)C)NC(=O)[C@H](Cc2ccc(-c3ccccc3)cc2)NC(=O)[C@H](CC(C)C)NC(=O)[C@H](Cc2c[nH]c3ccccc23)NC(=O)[C@H](CC(=O)O)NC(=O)[C@H](Cc2ccc(O)cc2)NC(=O)[C@H](Cc2ccccc2)NC(=O)CSC[C@@H](C(=O)N[C@@H](C)C(N)=O)NC(=O)[C@H](CO)NC(=O)[C@H](C(C)C)NC(=O)[C@H](CC(C)C)NC(=O)[C@H](CC(N)=O)NC1=O [Compound 1763] ({CH2CO}-FYDWL[Bip]V[NMeA][dAbu]NLVSCA-NH2; thioether N-14)
*A* -1.40

*Q* Quote log10 of IC50 reported for CC(C)C[C@@H]1NC(=O)[C@H](Cc2c[nH]c3ccccc23)NC(=O)[C@H](CC(=O)O)NC(=O)[C@H](Cc2ccc(O)cc2)NC(=O)[C@H](Cc2ccccc2)NC(=O)CSC[C@@H](C(=O)N[C@@H](C)C(N)=O)NC(=O)[C@H](CO)NC(=O)[C@H](CCN)NC(=O)[C@H](CC(C)C)NC(=O)[C@H](CC(N)=O)NC(=O)[C@@H](CC(C)C)NC(=O)[C@H](C)N(C)C(=O)[C@H](C(C)C)NC(=O)[C@H](Cc2ccc(-c3ccccc3)cc2)NC1=O [Compound 1538] ({CH2CO}-FYDWL[Bip]V[NMeA][dL]NL[Dab]SCA-NH2; thioether N-14) please.
*A* -1.00

*Q* Identify log10 of IC50 associated with the compound CC(C)C[C@@H]1NC(=O)[C@H](C(C)C)NC(=O)[C@H](Cc2ccccc2)NC(=O)[C@H](CC(=O)O)N(C)C(=O)[C@H](CCCNC(=N)N)NC(=O)[C@H](Cc2ccc(-c3ccccc3)cc2)NC(=O)[C@H](C(C)C)NC(=O)[C@H](Cc2c[nH]c3ccccc23)NC(=O)[C@H](CC(=O)O)NC(=O)[C@H](Cc2ccc(O)cc2)NC(=O)[C@H](Cc2ccccc2)NC(=O)CSC[C@@H](C(=O)NCC(N)=O)NC(=O)[C@H](CO)NC(=O)[C@H](C(C)C)NC1=O [Compound 1008] ({CH2CO}-FYDWV[Bip]R[NMeD]FVLVSCG-NH2; thioether N-14)
*A* -0.15
